These data points were gathered from ChEMBL document CHEMBL1629643.

Test system: Escherichia coli
EXPERIMENT_NOTES: Antimicrobial activity against Escherichia coli TOP10
Format: functional
Label class 1 when MIC < 2 µg/mL; otherwise class 0.

Use the examples below as a reference point.
# COMPOUND, LABEL
measured = [
    ("CO/N=C(\\C(=O)N[C@@H]1C(=O)N2C(C(=O)O)=C(COC(C)=O)CS[C@H]12)c1csc(N)n1 [CEFOTAXIME]", "class 1"),
    ("CC1(C)S[C@@H]2[C@H](NC(=O)[C@H](N)c3ccc(O)cc3)C(=O)N2[C@H]1C(=O)O [AMOXICILLIN]", "class 0"),
    ("CO/N=C(\\C(=O)N[C@@H]1C(=O)N2C(C(=O)O)=C(COC(N)=O)CS[C@H]12)c1ccco1 [CEFUROXIME]", "class 0"),
    ("CC(C)(O/N=C(\\C(=O)N[C@@H]1C(=O)N2C(C(=O)[O-])=C(C[n+]3ccccc3)CS[C@H]12)c1csc(N)n1)C(=O)O [CEFTAZIDIME]", "class 1"),
    ("CC1(C)S[C@@H]2[C@H](NC(=O)[C@H](C(=O)O)c3ccsc3)C(=O)N2[C@H]1C(=O)O [TICARCILLIN]", "class 0"),
]

Dear colleague, could you confirm whether MIC of CO[C@@]1(NC(=O)Cc2cccs2)C(=O)N2C(C(=O)O)=C(COC(N)=O)CS[C@@H]21 [CEFOXITIN] falls below 2 µg/mL? Thanks.
class 0

====

Tested on: Burkholderia cenocepacia
EXPERIMENT_NOTES: Antimicrobial activity against Burkholderia cenocepacia 09-54 expressing beta-lactamase PenB2
Format: functional
QUANTITY_MEASURED: MIC (µg/mL)
The response must be a number in µg/mL with no trailing unit.

Consider the following illustrative entries.
# SMILES_REPRESENTATION, MIC, µg/mL
measured = [
    ("CO/N=C(\\C(=O)N[C@@H]1C(=O)N2C(C(=O)O)=C(COC(N)=O)CS[C@H]12)c1ccco1", 512),
    ("CO[C@@]1(NC(=O)Cc2cccs2)C(=O)N2C(C(=O)O)=C(COC(N)=O)CS[C@@H]21", 512),
    ("CCN1CCN(C(=O)N[C@@H](C(=O)N[C@@H]2C(=O)N3[C@@H]2SC(C)(C)[C@@H]3C(=O)O)c2ccccc2)C(=O)C1=O", 512),
    ("CC(C)(O/N=C(\\C(=O)N[C@@H]1C(=O)N2C(C(=O)[O-])=C(C[n+]3ccccc3)CS[C@H]12)c1csc(N)n1)C(=O)O", 32),
    ("CC1(C)S[C@@H]2[C@H](NC(=O)[C@H](C(=O)O)c3ccsc3)C(=O)N2[C@H]1C(=O)O", 512),
]

Quick one: MIC for CC1(C)S[C@@H]2[C@H](NC(=O)[C@H](N)c3ccc(O)cc3)C(=O)N2[C@H]1C(=O)O ?
512
